Please provide measured inhibition at 3 µM for the entries that follow.
Tested On: human wild-type (WT)-pendrin (Homo sapiens)
Construct: expressed in transfected cells
Sequence (O43511 1-780): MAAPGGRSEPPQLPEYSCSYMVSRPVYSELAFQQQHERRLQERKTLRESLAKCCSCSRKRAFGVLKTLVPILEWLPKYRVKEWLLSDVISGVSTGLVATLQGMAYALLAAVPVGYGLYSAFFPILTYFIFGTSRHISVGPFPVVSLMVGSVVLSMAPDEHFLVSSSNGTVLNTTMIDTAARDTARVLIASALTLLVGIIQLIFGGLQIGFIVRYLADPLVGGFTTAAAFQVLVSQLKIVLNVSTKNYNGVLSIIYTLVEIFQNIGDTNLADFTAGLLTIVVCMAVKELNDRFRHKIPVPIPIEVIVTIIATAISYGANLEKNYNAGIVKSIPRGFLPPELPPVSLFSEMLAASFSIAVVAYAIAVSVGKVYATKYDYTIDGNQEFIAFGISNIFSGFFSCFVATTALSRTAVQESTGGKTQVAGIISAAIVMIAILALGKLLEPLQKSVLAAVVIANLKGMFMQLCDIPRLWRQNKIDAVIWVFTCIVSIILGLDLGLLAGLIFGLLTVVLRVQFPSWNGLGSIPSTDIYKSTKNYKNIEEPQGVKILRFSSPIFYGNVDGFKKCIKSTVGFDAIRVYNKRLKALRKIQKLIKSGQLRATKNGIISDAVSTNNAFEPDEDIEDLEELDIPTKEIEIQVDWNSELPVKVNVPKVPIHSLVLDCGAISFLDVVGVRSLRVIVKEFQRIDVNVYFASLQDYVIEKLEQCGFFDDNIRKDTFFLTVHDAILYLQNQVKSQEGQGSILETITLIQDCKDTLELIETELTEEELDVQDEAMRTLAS
Experiment: Pendrin Cl−/I− exchange inhibitory activity, YFP fluorescence in CHO-K1 cells
Format: cell-based
Condition Context: CHO-K1; compound concentration 3 μM

Problem: What reported inhibition at 3 µM corresponds to CC(C)(C)c1ccc(N2CCN(C(=O)Cc3c(C(=O)O)[nH]c4ccc(Cl)cc34)CC2)cc1 [YPI-A4943] on human wild-type (WT)-pendrin (Homo sapiens)?
Result: 34.1%

Problem: What reported inhibition at 3 µM corresponds to CCOc1ccccc1N1CCN(C(=O)Cc2c(C(=O)O)[nH]c3ccc(Cl)cc23)CC1 [YPI-A4882] on human wild-type (WT)-pendrin (Homo sapiens)?
Result: < 20%

Problem: What reported inhibition at 3 µM corresponds to Cc1ccc(N2CCN(C(=O)Cc3c(C(=O)O)[nH]c4ccc(Cl)cc34)CC2)cc1 [YPI-A4849] on human wild-type (WT)-pendrin (Homo sapiens)?
Result: < 20%

Problem: What reported inhibition at 3 µM corresponds to Cc1ccc2[nH]c(C(=O)O)c(CC(=O)N3CCN(c4c(C)cccc4C)CC3)c2c1 [YPI-A4946] on human wild-type (WT)-pendrin (Homo sapiens)?
Result: 56.9%

Problem: What reported inhibition at 3 µM corresponds to COc1ccc(Cl)c(N2CCN(C(=O)Cc3c(C(=O)O)[nH]c4ccc(Cl)cc34)CC2)c1 [YPI-A4886] on human wild-type (WT)-pendrin (Homo sapiens)?
Result: < 20%

Problem: What reported inhibition at 3 µM corresponds to Cc1cc(C)c2[nH]c(C(=O)O)c(CC(=O)N3CCN(c4ccc(C(C)(C)C)cc4)CC3)c2c1 [YPI-A4945] on human wild-type (WT)-pendrin (Homo sapiens)?
Result: < 20%

Problem: What reported inhibition at 3 µM corresponds to O=C(O)c1[nH]c2ccc(Cl)cc2c1CC(=O)N1CCN(c2ccc(Cl)cc2)CC1 [YPI-A4843] on human wild-type (WT)-pendrin (Homo sapiens)?
Result: < 20%

Problem: What reported inhibition at 3 µM corresponds to O=C(O)c1[nH]c2ccc(Cl)cc2c1CC(=O)N1CCN(c2ccc(Br)cc2)CC1 [YPI-A4846] on human wild-type (WT)-pendrin (Homo sapiens)?
Result: < 20%

Problem: What reported inhibition at 3 µM corresponds to Cc1ccccc1N1CCN(C(=O)Cc2c(C(=O)O)[nH]c3ccc(Cl)cc23)CC1 [YPI-A4847] on human wild-type (WT)-pendrin (Homo sapiens)?
Result: < 20%

Problem: What reported inhibition at 3 µM corresponds to CC(C)(C)c1ccc(N2CCN(C(=O)Cc3c(C(=O)O)[nH]c4ccc(F)cc34)CC2)cc1 [YPI-A4965] on human wild-type (WT)-pendrin (Homo sapiens)?
Result: < 20%

Problem: What reported inhibition at 3 µM corresponds to Cc1cccc(Cl)c1N1CCN(C(=O)Cc2c(C(=O)O)[nH]c3ccc(F)cc23)CC1 [YPI-A4963] on human wild-type (WT)-pendrin (Homo sapiens)?
Result: 52.3%

Problem: What reported inhibition at 3 µM corresponds to O=C(O)c1[nH]c2ccc(Cl)cc2c1CC(=O)N1CCN(c2ccccc2C(F)(F)F)CC1 [YPI-A4781] on human wild-type (WT)-pendrin (Homo sapiens)?
Result: 21.5%

Problem: What reported inhibition at 3 µM corresponds to Cc1cccc(C)c1N1CCN(C(=O)Cc2c(C(=O)O)[nH]c3ccc(Cl)cc23)CC1 [YPI-A4783] on human wild-type (WT)-pendrin (Homo sapiens)?
Result: 74.5%

Problem: What reported inhibition at 3 µM corresponds to O=C(O)c1[nH]c2ccc(Cl)cc2c1CC(=O)N1CCN(c2ccc(-c3ccccc3)cc2)CC1 [YPI-A4966] on human wild-type (WT)-pendrin (Homo sapiens)?
Result: < 20%

Problem: What reported inhibition at 3 µM corresponds to Cc1ccc(N2CCN(C(=O)Cc3c(C(=O)O)[nH]c4ccc(Cl)cc34)CC2)c(C)c1 [YPI-A4801] on human wild-type (WT)-pendrin (Homo sapiens)?
Result: 72.8%

Problem: What reported inhibition at 3 µM corresponds to O=C(O)c1[nH]c2ccc(Cl)cc2c1CC(=O)N1CCN(c2ccccc2Br)CC1 [YPI-A4844] on human wild-type (WT)-pendrin (Homo sapiens)?
Result: < 20%

* * *

Please provide measured inhibition at 100 µM for the entries that follow.
Tested On: human wild-type (WT)-pendrin (Homo sapiens, UniProt O43511)
Construct: expressed in transfected cells
Sequence (O43511 1-780): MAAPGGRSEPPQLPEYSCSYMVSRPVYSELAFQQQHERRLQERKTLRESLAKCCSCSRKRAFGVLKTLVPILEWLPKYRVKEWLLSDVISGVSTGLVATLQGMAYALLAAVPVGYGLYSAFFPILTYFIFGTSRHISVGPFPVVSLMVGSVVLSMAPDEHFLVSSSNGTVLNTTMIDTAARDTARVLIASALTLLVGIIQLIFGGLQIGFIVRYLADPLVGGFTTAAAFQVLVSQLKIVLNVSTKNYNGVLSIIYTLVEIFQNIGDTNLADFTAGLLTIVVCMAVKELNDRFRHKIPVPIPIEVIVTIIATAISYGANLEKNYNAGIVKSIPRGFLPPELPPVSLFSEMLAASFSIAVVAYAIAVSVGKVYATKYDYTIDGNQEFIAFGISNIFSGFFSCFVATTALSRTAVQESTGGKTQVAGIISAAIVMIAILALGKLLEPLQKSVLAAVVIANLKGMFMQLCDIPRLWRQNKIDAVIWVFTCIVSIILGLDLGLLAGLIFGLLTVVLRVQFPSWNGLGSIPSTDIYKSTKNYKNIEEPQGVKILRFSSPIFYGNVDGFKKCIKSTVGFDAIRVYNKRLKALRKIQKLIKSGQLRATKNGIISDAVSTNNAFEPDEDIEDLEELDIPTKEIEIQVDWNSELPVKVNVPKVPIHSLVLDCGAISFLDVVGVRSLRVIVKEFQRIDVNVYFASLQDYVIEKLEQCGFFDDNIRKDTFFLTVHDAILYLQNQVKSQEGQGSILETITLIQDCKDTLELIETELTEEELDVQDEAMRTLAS
Experiment: Pendrin Cl−/I− exchange inhibitory activity, YFP fluorescence in CHO-K1 cells
Type: cell-based
Condition Context: CHO-K1; compound concentration 100 μM
// note: answer is a bare numeric in %

Problem: Quick one: inhibition at 100 µM for Cc1cccc(N2CCN(C(=O)Cc3c(C(=O)O)[nH]c4ccc(Cl)cc34)CC2)c1 [YPI-A4848] ?
Result: 90.5

Problem: Quick one: inhibition at 100 µM for C[C@@H]1CN(c2ccccc2)CCN1C(=O)Cc1c(C(=O)O)[nH]c2ccc(Cl)cc12 [YPI-A4914] ?
Result: 68.2

Problem: Quick one: inhibition at 100 µM for CC(C)(C)c1ccc(N2CCN(C(=O)Cc3c(C(=O)O)[nH]c4ccc(Cl)cc34)CC2)cc1 [YPI-A4943] ?
Result: 91.5

Problem: Quick one: inhibition at 100 µM for O=C(O)c1[nH]c2ccc(Cl)cc2c1CC(=O)N1CCN(c2ccccc2C(F)(F)F)CC1 [YPI-A4781] ?
Result: 95.6

Problem: Quick one: inhibition at 100 µM for Cc1ccc(N2CCN(C(=O)Cc3c(C(=O)O)[nH]c4ccc(Cl)cc34)CC2)c(C)c1 [YPI-A4801] ?
Result: 97.4

Problem: Quick one: inhibition at 100 µM for Cc1ccc2[nH]c(C(=O)O)c(CC(=O)N3CCN(c4ccc(C(C)(C)C)cc4)CC3)c2c1 [YPI-A4944] ?
Result: 77.3

Problem: Quick one: inhibition at 100 µM for Cc1cc(C)c2[nH]c(C(=O)O)c(CC(=O)N3CCN(c4c(C)cccc4Cl)CC3)c2c1 [YPI-A4949] ?
Result: 79.6

Problem: Quick one: inhibition at 100 µM for Cc1cccc(Cl)c1N1CCN(C(=O)Cc2c(C(=O)O)[nH]c3ccc(Cl)cc23)CC1 [YPI-A4880] ?
Result: 98.4
